This collection of values is drawn from ChEMBL document CHEMBL1201862.

System: NCI-H23
Assay: NCI tumour cell line growth inhibition, 48 h
The source made the active and inactive calls. Rule as the data show it: active = GI50 up to about 1.1 µM and inactive = higher.
ENDPOINT_NAME: GI50

Some molecules with known GI50 results, for comparison:
MOLECULE: CCC(=O)OC1CCn2c1nc1c2C(=O)C(C)=C(N2CC2)C1=O (stereo not drawn)
GI50: < 0.0423 µM (active)
//
MOLECULE: CC(C)(CC(O)C#N)/[N+]([O-])=[N+](\[O-])C(C)(C)CC(O)C#N (stereo not drawn)
GI50: 25.4 µM (inactive)
//
MOLECULE: O=c1[nH]c(=O)n(C2OC(CO)C(O)C2O)c2nc(-c3ccc(-c4ccccc4)cc3)cnc12 (stereo not drawn)
GI50: > 100 µM (inactive)
//
MOLECULE: CCCCc1ccc(Nc2nc(OC)c3ncn(C4CC(O)C(CO)O4)c3n2)cc1 (stereo not drawn)
GI50: 18 µM (inactive)
//
MOLECULE: NNC(=O)CCC(=O)NC1C2CC3CC(C2)CC1C3 (stereo not drawn)
GI50: > 100 µM (inactive)

Q. Recall the recorded GI50 for COC(=O)C1(C)CCC(c2ccc(C)cc2)=C(CC(=O)O)C1 (stereo not drawn) with NCI-H23 and state it.
A. > 100 µM (inactive)

Q. Hello, I am looking for reported GI50 with NCI-H23 for CCOc1ccc(/N=N/S(=O)(=O)O)cc1 . Could you help?
A. > 100 µM (inactive)

Q. // lookup GI50 | system=NCI-H23 | key= C1=C(c2ccccc2)CN(c2ccccc2)OC1
A. 89.7 µM (inactive)
